Below, each entry is listed with its recorded log10 GI50.
system: Ba/F3 cells expressing EGFR mutations; assay: Cell proliferation assay, Ba/F3 cells expressing EGFR mutations (CellTiter-Glo, 72 hours); format: cell-based; details: BaF3 cells, EGFR DEL19-T790-C797S, CellTiter-Glo, read-out: DEL19-T790-C797S/BaF3 GI50
READOUT: log10 GI50 (log10 of the value in nM)

| COMPOUND | log10 GI50 |
| --- | --- |
| CN(C)CC1(F)CN(c2ccc3nc4n(c3c2)C23CCC(CN(CCOc5c(cnn5C)-c5cc(cn(C)c5=O)C(=O)N4)C2)C3)C1 (single isomer, unassigned) [Example A72B] | -0.24 |
| CN(C)C1CN(c2ccc3nc4n(c3c2)C23CCC(CN(CCOc5c(cnn5C)-c5cc(cn(C)c5=O)C(=O)N4)C2)C3)CC1F (single isomer, unassigned) [Example A84A] | 2.37 |
| Cn1ncc2c1OCCN1CC3CCC(C3)(C1)n1c(nc3ccc(N4CCC(N5CC(F)C5)C4)cc31)NC(=O)c1cc-2c(=O)n(C)c1 (single isomer, unassigned) [Example A94B2] | 0.93 |
| CN1CCCC12CN(c1ccc3nc4n(c3c1)C13CCC(CN(CCOc5c(cnn5C)-c5cc(cn(C)c5=O)C(=O)N4)C1)C3)C2 (single isomer, unassigned) [Example A76B] | 1.08 |
| CN1CCC2(CC1)CN(c1ccc3nc4n(c3c1)C13CCC(CN(CCOc5c(cnn5C)-c5cc(cn(C)c5=O)C(=O)N4)C1)C3)C2 (single isomer, unassigned) [Example A77A] | 2.51 |
| Cn1ncc2c1OCCN1CC3CCC(C3)(C1)n1c(nc3ccc(N4CCN(C5COC5)CC4)cc31)NC(=O)c1cc-2c(=O)n(C)c1 (single isomer, unassigned) [Example A71A] | 2.76 |
| Cn1ncc2c1OCCN1CC3CCC(C3)(C1)n1c(nc3ccc(N4CCC(N5CC(F)C5)C4)cc31)NC(=O)c1cc-2c(=O)n(C)c1 (single isomer, unassigned) [Example A94B1] | 0.81 |
| CN1CCC2CN(c3ccc4nc5n(c4c3)C34CCC(CN(CCOc6c(cnn6C)-c6cc(cn(C)c6=O)C(=O)N5)C3)C4)CC21 (single isomer, unassigned) [Example A79A] | 3.00 |
| Cn1ncc2c1OCCN1CC3CCC(C3)(C1)n1c(nc3ccc(N4CCC(N5CC(F)C5)C4)cc31)NC(=O)c1cc-2c(=O)n(C)c1 (single isomer, unassigned) [Example A94B] | 0.65 |
| CC(C)N1CCN(c2ccc3nc4n(c3c2)C23CCC(CN(CCOc5c(cnn5C)-c5cc(cn(C)c5=O)C(=O)N4)C2)C3)CC1 (single isomer, unassigned) [Example A108A] | 2.31 |
| CN1CC2(C1)CN(c1ccc3nc4n(c3c1)C13CCC(CN(CCOc5c(cnn5C)-c5cc(cn(C)c5=O)C(=O)N4)C1)C3)C2 (single isomer, unassigned) [Example A92B] | 0.04 |
| CN1CCC2(CN(c3ccc4nc5n(c4c3)C34CCC(CN(CCOc6c(cnn6C)-c6cc(cn(C)c6=O)C(=O)N5)C3)C4)C2)C(F)(F)C1 (single isomer, unassigned) [Example A91B] | 0.34 |
| CN(C)C1CN(c2ccc3nc4n(c3c2)C23CCC(CN(CCOc5c(cnn5C)-c5cc(cn(C)c5=O)C(=O)N4)C2)C3)C1 (single isomer, unassigned) [Example A65A] | 2.66 |
| CN(C)C1CCN(c2ccc3nc4n(c3c2)C23CCC(CN(CCOc5c(cnn5C)-c5cc(cn(C)c5=O)C(=O)N4)C2)C3)CC1 (single isomer, unassigned) [Example A64A] | 2.71 |
| CN(C)C1CN(c2ccc3nc4n(c3c2)C23CCC(CN(CCOc5c(cnn5C)-c5cc(cn(C)c5=O)C(=O)N4)C2)C3)CC1(F)F (single isomer, unassigned) [Example A99B] | 1.18 |
| CN(C)CCN(C)c1ccc2nc3n(c2c1)C12CCC(CN(CCOc4c(cnn4C)-c4cc(cn(C)c4=O)C(=O)N3)C1)C2 (single isomer, unassigned) [Example A85A] | 2.08 |
| CN(C)[C@H]1CCN(c2ccc3nc4n(c3c2)C23CCC(CN(CCOc5c(cnn5C)-c5cc(cn(C)c5=O)C(=O)N4)C2)C3)C1 (single isomer, unassigned) [Example A66B] | 0.32 |
| CN1CCC2(C1)CN(c1ccc3nc4n(c3c1)C13CCC(CN(CCOc5c(cnn5C)-c5cc(cn(C)c5=O)C(=O)N4)C1)C3)C2 (single isomer, unassigned) [Example A78B] | -0.09 |
| CN1CC2CC1CN2c1ccc2nc3n(c2c1)C12CCC(CN(CCOc4c(cnn4C)-c4cc(cn(C)c4=O)C(=O)N3)C1)C2 (single isomer, unassigned) [Example A105B] | 0.54 |
| CN(C)C1CN(c2ccc3nc4n(c3c2)C23CCC(CN(CCOc5c(cnn5C)-c5cc(cn(C)c5=O)C(=O)N4)C2)C3)CC1F (single isomer, unassigned) [Example A84D] | 1.11 |

---

Below, each entry is listed with its recorded IC50.
target: EGFR L858R (Homo sapiens, UniProt P00533, L858R); construct: purchased Carna Bio; experiment: Inhibition of EGFR L858R biochemical enzymatic activity (HTRF); conditions: 1 mM ATP, 1 h, room temperature, read-out: IC50 (nM) @L858R
Sequence (P00533 25-1210 L858R): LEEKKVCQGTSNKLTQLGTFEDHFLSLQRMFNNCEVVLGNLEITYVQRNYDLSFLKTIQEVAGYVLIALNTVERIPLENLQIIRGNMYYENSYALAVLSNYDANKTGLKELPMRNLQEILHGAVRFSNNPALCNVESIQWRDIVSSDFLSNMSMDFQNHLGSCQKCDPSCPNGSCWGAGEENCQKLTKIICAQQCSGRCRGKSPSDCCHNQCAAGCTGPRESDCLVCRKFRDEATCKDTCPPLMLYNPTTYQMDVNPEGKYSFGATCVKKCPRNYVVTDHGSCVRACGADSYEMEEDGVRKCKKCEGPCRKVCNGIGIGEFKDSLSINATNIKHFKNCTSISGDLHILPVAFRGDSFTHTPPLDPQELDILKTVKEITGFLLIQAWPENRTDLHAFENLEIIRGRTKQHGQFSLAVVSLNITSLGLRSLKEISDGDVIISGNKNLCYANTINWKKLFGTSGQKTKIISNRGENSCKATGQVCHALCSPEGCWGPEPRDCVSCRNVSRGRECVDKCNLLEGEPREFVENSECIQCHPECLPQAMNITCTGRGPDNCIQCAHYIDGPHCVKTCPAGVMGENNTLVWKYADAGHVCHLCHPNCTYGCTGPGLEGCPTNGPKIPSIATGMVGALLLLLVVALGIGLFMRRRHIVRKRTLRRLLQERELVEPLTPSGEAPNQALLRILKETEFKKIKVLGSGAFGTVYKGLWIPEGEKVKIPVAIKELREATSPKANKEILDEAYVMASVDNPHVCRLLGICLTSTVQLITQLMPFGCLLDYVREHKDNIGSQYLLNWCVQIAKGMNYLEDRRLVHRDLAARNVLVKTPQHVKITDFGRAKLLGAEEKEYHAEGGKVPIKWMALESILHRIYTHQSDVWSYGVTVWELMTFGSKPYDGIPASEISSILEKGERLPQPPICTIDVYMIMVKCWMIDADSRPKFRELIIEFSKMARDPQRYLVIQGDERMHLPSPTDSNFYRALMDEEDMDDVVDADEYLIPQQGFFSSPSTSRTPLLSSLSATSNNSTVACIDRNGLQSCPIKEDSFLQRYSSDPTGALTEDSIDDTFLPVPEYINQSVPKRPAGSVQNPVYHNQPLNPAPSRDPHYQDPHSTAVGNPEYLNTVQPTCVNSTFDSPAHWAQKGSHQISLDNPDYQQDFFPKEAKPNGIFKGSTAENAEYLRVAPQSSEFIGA

| COMPOUND | IC50 |
| --- | --- |
| Cn1ncc2c1OCCN1CC3CCC(CC3)(C1)n1c(nc3ccc(N4CCOCC4)cc31)NC(=O)c1cc-2c(=O)n(C)c1 [Example A74] | 707 nM |
| CN(C)[C@@H]1CCN(c2ccc3nc4n(c3c2)C23CCC(CN(CCOc5c(cnn5C)-c5cc(cn(C)c5=O)C(=O)N4)C2)C3)C1 (single isomer, unassigned) [Example A66D] | 3.7 nM |
| Cn1ncc2c1OCCN1CC3CCC(C3)(C1)n1c(nc3ccc(N4CC(N5CCOCC5)C4)cc31)NC(=O)c1cc-2c(=O)n(C)c1 (single isomer, unassigned) [Example A69B] | 22 nM |

---

Listed here are compounds together with their documented IC50.
target: EGFR L858R (Homo sapiens, UniProt P00533, L858R); construct: purchased Carna Bio; assay: Inhibition of EGFR L858R biochemical enzymatic activity (HTRF); details: 1 mM ATP, 1 h at room temperature, read-out: IC50 @L858R
READOUT: IC50

| COMPOUND | OBSERVED |
| --- | --- |
| Cc1cc2cc(n1)-c1cnn(C)c1OCCN1CCOCC(C1)n1c(nc3ccccc31)NC2=O (stereo not drawn) [Example B7B] | > 5000 nM |
| Cc1cc2cc(n1)-c1cnn(C)c1OCCC[C@@H](C)Cn1c(nc3ccc4c(c31)CCN(C1COC1)C4)NC2=O [Example B13] | 160 nM |
| Cc1cc2cc(n1)-c1cnn(C)c1OCCCCCn1c(nc3ccc4c(c31)CCN(C1COC1)C4)NC2=O [Example B17] | > 5000 nM |
| Cc1cc2cc(n1)-c1cnn(C)c1OCCN1CC3CCC(CC3)(C1)n1c(nc3ccc(N4CC5CCN(C)C5C4)cc31)NC2=O (stereo not drawn) [Example B35] | 378 nM |
| Cc1cc2cc(n1)-c1cnn(C)c1OCCN1CC3CCC(C3)(C1)n1c(nc3ccc(N4CCC5(CN(C)C5)C4)cc31)NC2=O (single isomer, unassigned) [Example B50B] | 26 nM |
| Cc1cc2cc(n1)-c1cnn(C)c1OCCCCCn1c(nc3ccn(C)c(=O)c31)NC2=O [Example B20] | > 5000 nM |
| Cc1cc2cc(n1)-c1cnn(C)c1OCCN1CC3CCC(C3)(C1)n1c(nc3ccc(N4CCC5(CCN(C)C5)CC4)cc31)NC2=O (single isomer, unassigned) [Example B52A] | > 5000 nM |
| Cc1cc2cc(n1)-c1cnn(C)c1OCCN1CC3CCC(C3)(C1)n1c(nc3ccc(N4CCN(C5COC5)CC4)cc31)NC2=O (single isomer, unassigned) [Example B58A] | > 5000 nM |
| Cc1cc2cc(n1)-c1cnn(C)c1OCCN1CC3CCC(C3)(C1)n1c(nc3ccc(N4CCC(N5CCN(C)CC5)C4)cc31)NC2=O (single isomer, unassigned) [Example B49A] | > 5000 nM |
| Cc1cc2cc(n1)-c1cnn(C)c1OCCN1CC3CCC(C3)(C1)n1c(nc3ccccc31)NC2=O (stereo not drawn) [Example B8B] | 469 nM |
| COCCN(C)c1ccc2nc3n(c2c1)C12CCC(CN(CCOc4c(cnn4C)-c4cc(cc(C)n4)C(=O)N3)C1)C2 (single isomer, unassigned) [Example B46A] | > 5000 nM |
| Cc1cc2cc(n1)-c1cnn(C)c1OCCN1CC3CCC(C3)(C1)n1c(nc3ccc(N4CCC5(CN(C)C5)C4)cc31)NC2=O (single isomer, unassigned) [Example B50A] | > 5000 nM |
